# Lookup of reported % inhibition of 14C-serotonin release (SRA), HIT-Positive Patient #3 serum, scFv 50 µg/mL keyed by entry
Target: T1, PF4/heparin complex (human PF4 complexed with heparin) (human, UniProt P02776 32-101)
T1 sequence: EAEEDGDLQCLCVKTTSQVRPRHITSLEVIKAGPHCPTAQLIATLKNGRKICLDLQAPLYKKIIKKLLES
Experiment: cell-based or functional assay
Please state the figure in %; there is no need to write the unit.

Reference set (2 entries):
* Mutant C scFv, scFv(S50N, Y53H) (scFv, VL-linker-VH; histidine-tagged, from E. coli BL21; also called Mut C; not shown: histidine tag from the pADL-22c vector) scFv: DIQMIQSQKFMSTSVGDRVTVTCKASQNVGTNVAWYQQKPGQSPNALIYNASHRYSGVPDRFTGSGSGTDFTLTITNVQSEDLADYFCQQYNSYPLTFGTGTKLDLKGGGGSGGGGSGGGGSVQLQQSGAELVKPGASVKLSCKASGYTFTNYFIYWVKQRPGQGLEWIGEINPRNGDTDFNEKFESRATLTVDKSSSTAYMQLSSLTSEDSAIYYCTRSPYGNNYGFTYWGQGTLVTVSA | -1.2
* Mutant F scFv, scFv(E183V, E186K, G223R) (scFv, VL-linker-VH; histidine-tagged, from E. coli BL21; also called Mut F; not shown: histidine tag from the pADL-22c vector) scFv: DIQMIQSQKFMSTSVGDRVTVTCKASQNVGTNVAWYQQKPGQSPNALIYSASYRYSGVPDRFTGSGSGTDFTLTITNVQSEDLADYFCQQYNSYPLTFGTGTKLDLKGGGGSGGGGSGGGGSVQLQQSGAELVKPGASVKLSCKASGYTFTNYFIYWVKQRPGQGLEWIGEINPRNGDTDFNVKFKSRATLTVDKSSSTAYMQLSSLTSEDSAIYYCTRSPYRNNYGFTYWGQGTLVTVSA | 50.6

--- query ---
Lookup: Which measured % inhibition of 14C-serotonin release (SRA), HIT-Positive Patient #3 serum, scFv 50 µg/mL value corresponds to Mutant E scFv, scFv(Y156H, D180G, Q233P) (scFv, VL-linker-VH; histidine-tagged, from E. coli BL21; also called Mut E; not shown: histidine tag from the pADL-22c vector) scFv: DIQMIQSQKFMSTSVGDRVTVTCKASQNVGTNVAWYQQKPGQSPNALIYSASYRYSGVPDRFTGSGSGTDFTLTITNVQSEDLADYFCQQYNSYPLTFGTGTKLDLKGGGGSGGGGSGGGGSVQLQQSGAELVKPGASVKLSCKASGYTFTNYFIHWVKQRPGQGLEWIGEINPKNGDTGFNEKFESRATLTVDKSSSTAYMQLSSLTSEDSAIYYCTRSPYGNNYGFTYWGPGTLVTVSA ?
Found: 14.5

Reference for the values: patent US20250011413A1
